- System: Elite Eucalyptus urophylla clone
- run.description: Auxin pre-treatment, Agrobacterium infection rate by GUS staining
- Format: cell-based
- study.conditions: Table 7; 1.0 mg/l in EucReg Medium + 5 mg/l zeatin, 25 explants
Let's look at some molecules and their measured No. GUS+.

O=C(O)Cc1cccc2ccccc12 = 13
O=C(Nc1ccccc1)Nc1cnns1 = 0
O=C(O)COc1ccc(Cl)cc1Cl = 12

Now consider a different molecule.
query: Using Elite Eucalyptus urophylla clone as the test system, report measured No. GUS+ of O=C(O)Cc1c[nH]c2ccccc12 .
result: 16
